target_or_test_system: CCK-A receptor (Mus musculus, UniProt O08786)
Construct: crude membrane specimen from mouse pancreas; from tissue; host or cells: pancreas of male ddY mice, crude membranes
Sequence (O08786 whole entry): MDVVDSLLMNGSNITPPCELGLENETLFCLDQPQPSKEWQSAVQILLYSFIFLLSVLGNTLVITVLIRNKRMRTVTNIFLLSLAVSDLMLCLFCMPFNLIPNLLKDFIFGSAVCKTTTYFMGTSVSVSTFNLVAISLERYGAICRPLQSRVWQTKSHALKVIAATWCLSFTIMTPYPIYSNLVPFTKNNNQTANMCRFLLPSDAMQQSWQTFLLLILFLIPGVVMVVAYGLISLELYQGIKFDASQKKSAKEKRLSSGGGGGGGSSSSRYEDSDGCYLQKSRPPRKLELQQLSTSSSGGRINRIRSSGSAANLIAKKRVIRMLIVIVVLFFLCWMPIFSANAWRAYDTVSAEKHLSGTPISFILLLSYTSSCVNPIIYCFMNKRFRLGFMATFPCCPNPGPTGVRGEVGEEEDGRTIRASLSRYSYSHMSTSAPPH
assay_notes: CCK-A receptor antagonism, displacement of [3H]CCK-8, pancreas crude membrane
Type: binding, mouse (male ddY)
measurement_setup: mouse pancreas membrane, [3H]CCK-8 1 nM, 90 min, 25 °C; read-out: Receptor CCK-A (IC50)
recorded_endpoint: IC50 (nM)

[a] O=C(O)Cc1cccc(NC(=O)NC2C(=O)N(CC(=O)N3CCCC3)c3ccccc3N(CC(=O)N3CCCC3)C2=O)c1
[b] O=C(O)CCCNC(=O)OCc1cccc(NC(=O)NC2C(=O)N(CC(=O)c3ccco3)c3ccccc3N(CC(=O)c3ccco3)C2=O)c1 [Compound 11f]
[c] Cc1cccc(NC(=O)NC2C(=O)N(CC(=O)c3ccco3)c3ccccc3N(CC(=O)c3ccco3)C2=O)c1
Going from lowest to highest recorded IC50, rank the entries listed above. Thanks in advance for listing the labels in the requested order.
c, b, a
(c: 120 nM, b: 800 nM, a: 10500 nM)
